Data provenance is PubChem BioAssay AID1645863.

Entries and their IC50
Measured Target: UniProt:Q14694
Sequence (Q14694 whole entry, looked up): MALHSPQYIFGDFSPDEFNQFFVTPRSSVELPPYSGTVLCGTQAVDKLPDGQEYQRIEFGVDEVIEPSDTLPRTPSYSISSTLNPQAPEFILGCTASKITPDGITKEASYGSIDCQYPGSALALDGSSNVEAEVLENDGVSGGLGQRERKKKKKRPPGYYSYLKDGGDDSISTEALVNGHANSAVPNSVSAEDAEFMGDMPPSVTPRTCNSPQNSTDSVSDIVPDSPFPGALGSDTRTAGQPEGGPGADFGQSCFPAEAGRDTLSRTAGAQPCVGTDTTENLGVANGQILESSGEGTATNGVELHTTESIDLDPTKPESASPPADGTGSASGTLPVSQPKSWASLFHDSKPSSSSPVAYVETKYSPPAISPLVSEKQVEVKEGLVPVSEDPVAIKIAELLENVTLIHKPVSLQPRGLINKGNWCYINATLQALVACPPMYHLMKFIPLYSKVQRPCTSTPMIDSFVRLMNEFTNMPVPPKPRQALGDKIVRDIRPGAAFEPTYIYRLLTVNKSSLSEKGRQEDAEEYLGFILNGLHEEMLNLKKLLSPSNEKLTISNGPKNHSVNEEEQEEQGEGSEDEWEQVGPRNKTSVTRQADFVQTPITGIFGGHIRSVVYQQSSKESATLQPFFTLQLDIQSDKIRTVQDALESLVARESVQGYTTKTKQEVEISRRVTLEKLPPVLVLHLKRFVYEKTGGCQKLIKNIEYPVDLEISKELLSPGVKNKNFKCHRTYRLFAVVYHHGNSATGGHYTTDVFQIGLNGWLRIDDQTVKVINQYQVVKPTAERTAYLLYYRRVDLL
Protocol Text: ubiquitin-specific protease 10 DUB inhibitors, concentration-effect, biochemical, verification of primary screen actives (AID 1645863);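 note: potency values describe inhibition of USP10 cleavage of a fluorogenic ubiquitin substrate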
Conditions Used: USP10 deubiquitinase enzymatic assay
Activity calls are given as the source filed them. The rule behind the calls is not given here.

These solved cases illustrate the format of a correct answer.
| Compound | IC50 |
| --- | --- |
| COc1ccccc1CNC(=O)Cn1cnc2c(-c3ccccc3)csc2c1=O | > 40 µM (inactive) |
| Cc1ccc(N2CC(c3nnc(NC(=O)CCc4ccccc4)s3)CC2=O)cc1 (stereo not given) | > 40 µM (inactive) |
| Cc1cc(C)c(NC(=O)Cn2c(SCc3cccc(F)c3)nc3cccnc32)c(C)c1 | > 40 µM (inactive) |
| CC(NC(=O)c1ccccc1)c1nc2ccccc2n1CC(=O)Nc1ccc(OC(F)(F)F)cc1 (stereo not given) | 37.9 µM |
| COc1ccc(C(=O)COC(=O)c2cccc(NC(=O)c3ccc(Cl)cc3)c2)cc1 | > 40 µM (inactive) |
| CC(C)CC(=O)Nc1cc(F)c2nc(N3CCOCC3)ccc2c1 | > 40 µM (inactive) |

Note to self: IC50 recorded for `Cc1ccc(-c2nn(C(C)(C)C)c3ncnc(NS(=O)(=O)c4ccc(Cl)cc4)c23)cc1` was > 40 µM (inactive)

Entry `Cc1c(C#N)c2ccccc2n1CC(=O)NCc1ccc2c(c1)OCO2` — recorded IC50 = > 40 µM (inactive)

Sample `Cc1nc2c(nnn2C[C@H]2CCCN2C(=O)c2ccc(F)cc2)c(=O)[nH]1` ; IC50 observed: > 40 µM (inactive)

IC50 recorded for this compound, O=C(COc1ccc(N2CC(C(=O)NCc3ccc4c(c3)OCO4)CC2=O)cc1)Nc1ccc(F)cc1 (stereo not given) , is 20.8 µM

* * *

Measured Target: Ubiquitin carboxyl-terminal hydrolase 10 (Homo sapiens)
Protocol Text: ubiquitin-specific protease 10 DUB inhibitors, concentration-effect, biochemical, verification of primary screen actives (AID 1645863);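 note: potency values describe inhibition of USP10 cleavage of a fluorogenic ubiquitin substrate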
Conditions Used: USP10 deubiquitinase enzymatic assay
Activity calls are given as the source filed them. How the calls were made is not given here.
The following compounds are listed with their measured IC50 values.

See these solved cases before continuing.
| Line Notation | IC50 |
| --- | --- |
| Cc1ccc(Nc2nc3c(S(=O)(=O)c4ccccc4)nnn3c3ccccc23)c(C)c1 | > 40 µM (inactive) |
| CCOc1ccc2c(c1)c(=O)c(C(=O)c1ccccc1)cn2CC(=O)Nc1ccccc1 | > 40 µM (inactive) |

Note to self: IC50 recorded for `N#C/C(=C\c1ccc(OCc2cccc(C(=O)O)c2)cc1)c1ccc(F)cc1` was 20.2 µM

Measured IC50, `COc1ccc(Oc2cc3n(c(=O)n2)CCc2cc(OC)c(OC)cc2-3)cc1` : > 40 µM (inactive)

According to the records, this compound `CCOC(=O)c1ccc(NC(=O)Cn2c(=O)n(-c3ccc(CC(=O)NCc4ccco4)cc3)c(=O)c3ccccc32)cc1` displays IC50 of > 40 µM (inactive)

* * *

Measured Target: Ubiquitin carboxyl-terminal hydrolase 10 (Homo sapiens)
Protocol Text: ubiquitin-specific protease 10 DUB inhibitors, concentration-effect, biochemical, verification of primary screen actives (AID 1645863);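 note: potency values describe inhibition of USP10 cleavage of a fluorogenic ubiquitin substrate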
Conditions Used: USP10 deubiquitinase enzymatic assay
Calls of active or inactive are those of the source. The rule behind the calls is not given here.
Pick one and only one: active, inactive

Example entries and their recorded answers appear below.
| Molecule | Qualitative Label |
| --- | --- |
| CCCC(O)CCCCCCCc1cc(O)cc(O)c1C(=O)OC(CCC)CCCCCCCc1cc(O)cc(O)c1 (stereo not given) | active |
| COc1ccc(-c2nc3c(c(=O)c4ccccc4n3C)c(=O)n2Cc2ccco2)cc1 | active |
| CC(C)c1nnc(NC(=O)C2CC(=O)N(CCc3ccc(F)cc3)C2)s1 (stereo not given) | inactive |
| COc1ccc(/C=C/C(=O)Nc2nc3n(n2)C(c2ccccc2)CC(=O)N3)cc1 (stereo not given) | inactive |

Any idea what this test logged for `CCC(=O)Nc1nc2cc(NC(=O)Nc3cccc(C)c3)ccc2s1` ?
active

Hello, I am checking results. What call was entered for `COc1ccccc1C(=O)N1CCC[C@H](Cn2nnc(-c3cccnc3)n2)C1` ?
inactive

Assay outcome for `CC(=O)Nc1ccc(S(=O)(=O)NCc2ccc(C(=O)NCCc3ccc(Cl)cc3)cc2)cc1` : what was it?
inactive

Called result for `COc1cc2c(c(OCC(=O)Nc3ccc4c(c3)OCCO4)c1)C(=O)O[C@@H](C)CCCC(=O)CCCCC2`
active

How did this test come out for `Cc1ccc(NCc2cc3c(-c4cccc(F)c4)nn(-c4ccccc4)c3[nH]c2=O)cc1C` ?
inactive
